Biological target: T1, dimeric hIL-4R-hFc (human, UniProt P24394 26-232)
T1 construct: also called hIL-4R-Fc; not shown: human Fc (hFc)
T1 sequence: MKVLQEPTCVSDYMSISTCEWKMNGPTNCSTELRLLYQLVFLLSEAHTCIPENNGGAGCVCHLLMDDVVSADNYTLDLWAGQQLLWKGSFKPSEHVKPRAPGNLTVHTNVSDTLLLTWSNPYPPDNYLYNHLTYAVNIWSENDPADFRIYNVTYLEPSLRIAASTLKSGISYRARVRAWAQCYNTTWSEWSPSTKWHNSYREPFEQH
Assay: SPR (BIAcore 2000); antibody captured, dimeric hIL-4R-hFc injected
Protocol: Binding affinity (KD) of selected antibodies with respect to hIL-4R was determined using a real-time biosensor surface plasmon resonance assay (BIAcore™ 2000). Briefly, antibody was captured on a goat anti-mouse (GAM) IgG polyclonal antibody surface created through direct chemical coupling of the GAM IgG to a BIAcore™ chip to form a captured antibody surface. […] Binding of antigen to antibody and dissociation of the bound complex, were monitored in real time. […]
property-name: Kd (nM)
State just the number; it will be interpreted in nM.

Asked: Supply measured Kd of VAB 7B9-3 (antibody, V domains shown, Apparently tested with mouse constant region (anti-mouse IgG capture/detection)) VH: QVQLVQSGAEVKKPGASVKVSCKDSAYTFNRYGISWVRQAPGQGLEWMGWISAYTGNTVYAQKLQGRVTMTTDNSTSTAYMELRSLRSDDTAVYYCARDKSIFGVVRGFDYWGQGTLVTVSS VL: EIVMTQSPVTLSLSPGERATLPCRASQSVSSSLAWYQQKAGQSPRLLIYGASTRATGIPARFSGSGSGTEFTLTISNLQSEDFAVYYCQQYNNWPLTFGGGTKVEIK in your reply.
Given back: 0.052

Asked: Report measured Kd; entry is VAK12B11-9 (antibody, V domains shown, Apparently tested with mouse constant region (anti-mouse IgG capture/detection)) VH: QVQLVESGGGVVQPGRSLRLSCAASGFTFSSYAMYWVRQAPGKGLEWVAVISYDGSNKYYTDSVKGRFTVSRDNSKNTLFLQMNSLRAEDTALYYCAKESSSYGLDVWGQGTTVTVSS VL: DIQMTQSPSTLSASVGDRVAITCRASQSISNWLAWYQQKPGKAPKLLISKASSLKSGVPSRFSGSGSGTEFTLTISSLQPDDFAAYYCQQYNSYSYTFGQGTKLEIK
Given back: 0.036

Asked: Identify measured Kd associated with VAB 3B4-10 (antibody, V domains shown, Apparently tested with mouse constant region (anti-mouse IgG capture/detection)) VH: QVHLVQSGAEVKKPGASVKVSCKASGYTFTNYGIGWVRQAPGQGLEWMGWISIYNGNTNYAQRLQGRVTMTTDTSTSTAFMDLRSLKSDDTAVYYCARGSGYNFDHWGQGTLVTVSS VL: AIQMTQSPSSLSASVGDRVTITCRASQGIRNDLGWYQQIPGKAPKLLIYAASSLQSGVPSRFSGSGSGTDFTLTISNLQPEDFAVYFCLQDNTYPYTFGQGTNLESK
Given back: 0.053

Asked: Note Kd for the binder shown: VX 3F7-6 (antibody, V domains shown, 395/397; 399/401 without saying which was assayed; Apparently tested with mouse constant region (anti-mouse IgG capture/detection)) VH: EVQLVESGGGLVQPGGSLRLSCAASGFTFSSFWMTWVRQAPGKGLEWVANIKQDGSEKYYVDSVKGRFTISRDNAKNSLYLQMNSLRAEDTAVYYCARDPGRTMVRGGIRYYYGMDVWGQGTTVTVSS VL: DIQMTQSPSSVSASVGDRVTISCRASQGVSSWLAWYQQKPGNAPKLLISAASSIQSGVPSRFSGSGSGTDFTLTISSLQPEDFATYYCQQANSFPLTFGGGTKVEIK
Given back: 0.654

Asked: Fill in Kd for record VAB 10C1-5 (antibody, V domains shown, Apparently tested with mouse constant region (anti-mouse IgG capture/detection)) VH: QVQLVETGGDLVRPGGSLRLSCTASGFTLSDYYMSWIRQAPGKGLEWVSYIRRSGNTIYYADSVKGRFTISRDNAKNSLYLQMNSLRAEDTAVYYCARGGDWADVWGQGTTVTVSS VL: DIQMTQSPSSLSASVGDRVTITCRASQGISIYLAWFQQKPGKAPKSLIYAASSLQRGVPSKFSGSGSGTDFTLTISSLQPEDFATYYCQQYNSYPYTFGQGTKLEIK
Given back: 0.051
